Parameter IC50: see the listing below.
# SYSTEM TESTED: α4β7 integrin (Homo sapiens (Human), UniProt P13612+P26010)
# Sequence (P26010 20-798, one chain of several): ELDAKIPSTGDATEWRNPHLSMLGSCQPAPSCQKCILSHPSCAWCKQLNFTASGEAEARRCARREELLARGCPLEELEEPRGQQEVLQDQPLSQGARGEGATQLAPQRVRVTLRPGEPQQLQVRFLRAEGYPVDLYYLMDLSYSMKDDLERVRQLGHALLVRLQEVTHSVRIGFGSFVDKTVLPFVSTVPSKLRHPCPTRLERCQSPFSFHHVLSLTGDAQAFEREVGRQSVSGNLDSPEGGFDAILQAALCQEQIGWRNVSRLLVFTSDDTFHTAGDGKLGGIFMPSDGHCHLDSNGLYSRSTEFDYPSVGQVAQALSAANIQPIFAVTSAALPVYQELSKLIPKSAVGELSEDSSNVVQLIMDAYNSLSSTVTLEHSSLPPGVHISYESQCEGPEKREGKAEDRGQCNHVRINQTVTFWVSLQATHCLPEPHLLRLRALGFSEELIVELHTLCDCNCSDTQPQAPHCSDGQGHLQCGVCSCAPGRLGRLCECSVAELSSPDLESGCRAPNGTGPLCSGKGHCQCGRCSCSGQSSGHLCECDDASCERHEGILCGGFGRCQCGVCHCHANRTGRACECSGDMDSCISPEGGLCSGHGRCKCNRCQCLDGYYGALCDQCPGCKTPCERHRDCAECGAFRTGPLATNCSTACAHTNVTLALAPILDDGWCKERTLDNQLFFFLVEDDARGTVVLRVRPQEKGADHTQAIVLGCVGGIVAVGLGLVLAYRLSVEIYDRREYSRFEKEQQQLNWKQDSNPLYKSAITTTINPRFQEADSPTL
# PROTOCOL NOTES: Integrin Adhesion Assay: Protocol 4 (MAdCAM-coated plate, RPMI-8866 cells with stable LOF mutation of the ITGB1 gene)
# Type: cell-based
# MEASUREMENT CONDITIONS: Protocol 4; RPMI-8866 cells with LOF mutation of ITGB1, MAdCAM; read-out: Mean IC50 α4β7 KO
# From the text: Integrin Adhesion Assay Using Genetically Modified Cells Generating Stable Cell Lines with ITGB1 or ITGB7 Knockout (Protocol 4 and Protocol 5) […] To generate an individual clones of cells deficient in either ITGB7 or ITGB1 by limiting dilution assay, the transfected cells were resuspended at 5 cells/mL and seeded in 384 well plates. Outgrowth of clones was monitored using a microscope, and 24 clones were transferred for expansion. […]
PARAMETER: IC50

>>> print(df.to_string())
                                 cpd_smiles  parameter        result
0  Cc1cccc(F)c1C(=O)N[C@@H](Cc1cccc2c(-c3ncccc3CN3CCCCC3)cccc12)C(=O)O       IC50  10 to 100 nM
1  COc1cccc(CN2CCC(F)CC2)c1-c1cccc2c(C[C@H](NC(=O)C3(C(F)(F)F)CCN(CC(F)(F)F)CC3)C(=O)O)cccc12       IC50  10 to 100 nM
2  COc1ccc(CN2CCCC(C)(C)CC2)c(OC)c1-c1cccc2c(C[C@H](NC(=O)C3(C(F)(F)F)CCN(CC(F)(F)F)CC3)C(=O)O)cccc12       IC50  10 to 100 nM
3  COc1ccc(CN2CCCCC2)cc1-c1cccc2c(C[C@H](NC(=O)C3(C(F)(F)F)CCN(CC(F)F)CC3)C(=O)O)cccc12       IC50       < 10 nM
4  CC1(C)CCN(Cc2ccc(-c3cccc4c(C[C@H](NC(=O)C5(C(F)(F)F)CCN(CC(F)(F)F)CC5)C(=O)O)cccc34)c3cnccc23)CC1       IC50       < 10 nM
5  COc1cc(CN2CCC(C(F)(F)F)CC2)cnc1-c1cccc2c(C[C@H](NC(=O)C3(C(F)(F)F)CCN(CC(F)(F)F)CC3)C(=O)O)cccc12       IC50       < 10 nM

###

# SYSTEM TESTED: α4β1 integrin (Homo sapiens (Human), UniProt P05556+P13612)
# Sequence (P13612 34-1032): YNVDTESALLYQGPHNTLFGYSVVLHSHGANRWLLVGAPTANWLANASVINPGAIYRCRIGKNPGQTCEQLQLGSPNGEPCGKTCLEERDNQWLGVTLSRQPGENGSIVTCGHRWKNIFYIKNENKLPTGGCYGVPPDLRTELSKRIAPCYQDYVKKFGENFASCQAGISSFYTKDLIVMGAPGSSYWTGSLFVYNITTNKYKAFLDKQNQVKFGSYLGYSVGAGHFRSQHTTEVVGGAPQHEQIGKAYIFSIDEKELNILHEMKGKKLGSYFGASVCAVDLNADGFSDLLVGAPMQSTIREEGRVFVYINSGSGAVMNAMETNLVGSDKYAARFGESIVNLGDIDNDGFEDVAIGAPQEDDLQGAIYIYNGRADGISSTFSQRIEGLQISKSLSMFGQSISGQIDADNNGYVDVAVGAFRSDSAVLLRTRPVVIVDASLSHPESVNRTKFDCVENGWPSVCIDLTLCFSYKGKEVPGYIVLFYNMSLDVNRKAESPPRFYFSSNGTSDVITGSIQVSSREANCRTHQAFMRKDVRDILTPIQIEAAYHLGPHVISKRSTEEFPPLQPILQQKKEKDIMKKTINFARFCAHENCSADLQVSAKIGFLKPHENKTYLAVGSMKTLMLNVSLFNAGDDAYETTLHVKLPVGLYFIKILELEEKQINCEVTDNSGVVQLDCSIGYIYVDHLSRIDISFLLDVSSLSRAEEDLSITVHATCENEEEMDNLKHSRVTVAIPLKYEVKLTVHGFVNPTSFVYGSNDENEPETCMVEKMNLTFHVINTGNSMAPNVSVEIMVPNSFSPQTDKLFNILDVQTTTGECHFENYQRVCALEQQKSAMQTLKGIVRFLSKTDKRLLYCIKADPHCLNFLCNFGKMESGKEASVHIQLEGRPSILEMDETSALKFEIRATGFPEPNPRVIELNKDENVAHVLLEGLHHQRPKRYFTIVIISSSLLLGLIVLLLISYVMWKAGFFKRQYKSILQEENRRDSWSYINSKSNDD
# Sequence (P05556 21-798): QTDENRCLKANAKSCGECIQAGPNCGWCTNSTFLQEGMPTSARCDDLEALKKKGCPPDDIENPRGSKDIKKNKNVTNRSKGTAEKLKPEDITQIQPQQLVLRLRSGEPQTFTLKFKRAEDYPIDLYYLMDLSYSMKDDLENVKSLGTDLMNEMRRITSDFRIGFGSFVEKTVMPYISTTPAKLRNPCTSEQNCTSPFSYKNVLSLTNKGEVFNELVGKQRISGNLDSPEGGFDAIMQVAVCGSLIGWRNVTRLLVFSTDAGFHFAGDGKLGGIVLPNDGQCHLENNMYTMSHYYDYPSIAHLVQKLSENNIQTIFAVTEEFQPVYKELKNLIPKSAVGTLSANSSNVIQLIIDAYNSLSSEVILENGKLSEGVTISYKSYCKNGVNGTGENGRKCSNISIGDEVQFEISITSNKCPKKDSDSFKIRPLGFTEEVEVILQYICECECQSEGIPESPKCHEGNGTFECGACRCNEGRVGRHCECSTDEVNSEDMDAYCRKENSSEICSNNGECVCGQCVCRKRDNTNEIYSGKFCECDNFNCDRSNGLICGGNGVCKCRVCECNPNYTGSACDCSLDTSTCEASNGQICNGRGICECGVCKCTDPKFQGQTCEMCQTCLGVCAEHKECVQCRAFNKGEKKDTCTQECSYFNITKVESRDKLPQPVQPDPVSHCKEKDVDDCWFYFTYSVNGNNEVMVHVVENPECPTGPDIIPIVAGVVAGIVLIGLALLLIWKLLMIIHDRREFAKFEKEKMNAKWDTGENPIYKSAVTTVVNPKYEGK
# PROTOCOL NOTES: Integrin Adhesion Assay: Protocol 5 (VCAM-coated plate, RPMI-8866 cells with stable LOF mutation of the ITGB7 gene)
# Type: cell-based
# MEASUREMENT CONDITIONS: RPMI-8866 cells with stable LOF mutation of the ITGB7 gene; read-out: Mean IC50 α4β1 KO^b
PARAMETER: IC50

COMPOUND	PARAMETER	RESULT
COc1ccc(CN2CCCCC2)c(C(F)(F)F)c1-c1cccc2c(C[C@H](NC(=O)C3(C(F)(F)F)CCN(CC(F)(F)F)CC3)C(=O)O)cccc12 [Compound 564]	IC50	100 to 1000 nM
Cc1cc(N2CCOC[C@@H]2C(F)(F)F)cc(F)c1C(=O)N[C@@H](Cc1cccc2c(-c3c(C(F)(F)F)c4ccccc4n(C)c3=O)cccc12)C(=O)O [Compound 361]	IC50	> 1000 nM
CCCS(=O)(=O)Nc1ccc(F)c(C(=O)N[C@@H](Cc2cccc3c(-c4c(C(F)(F)F)c5ccccc5n(C)c4=O)cccc23)C(=O)O)c1F [Compound 496]	IC50	> 1000 nM
O=C(O)[C@H](Cc1cccc2c(-c3nccc4c(CN5CCCC5)cccc34)cccc12)NC(=O)C1(C(F)(F)F)CCN(CC(F)(F)F)CC1 [Compound 553]	IC50	100 to 1000 nM
Cn1ccc(C(F)(F)F)c(-c2cccc3c(C[C@H](NC(=O)c4c(F)cc(N5CCOc6ccccc65)cc4F)C(=O)O)cccc23)c1=O [Compound 439]	IC50	> 1000 nM
O=C(O)[C@H](Cc1cccc2c(-c3nccc4c(CN5CCC(F)(F)C5)cccc34)cccc12)NC(=O)C1(C(F)(F)F)CCN(CC(F)(F)F)CC1 [Compound 594]	IC50	> 1000 nM
COc1ccc(CN2CCCCC2)c(C(F)(F)F)c1-c1cccc2c(C[C@H](NC(=O)c3c(C)cccc3F)C(=O)O)cccc12 [Compound 562]	IC50	100 to 1000 nM
COc1ccc(CN(C)CCF)c(OC)c1-c1cccc2c(C[C@H](NC(=O)c3c(C)cccc3F)C(=O)O)cccc12 [Compound 636]	IC50	100 to 1000 nM
CCOCc1cc(OC)c(-c2cccc3c(C[C@H](NC(=O)C4(C(F)(F)F)CCN(CC(F)(F)F)CC4)C(=O)O)cccc23)c(OC)c1 [Compound 430]	IC50	100 to 1000 nM
CN(C)C1CCN(Cc2cc(N3CCOC[C@@H]3C(F)(F)F)cc(F)c2C(=O)N[C@@H](Cc2cccc3c(-c4cccc5ccncc45)cccc23)C(=O)O)CC1 [Compound 300]	IC50	> 1000 nM
COc1ccc(CN2CCC(F)(F)CC2)c(OC)c1-c1cccc2c(C[C@H](NC(=O)C3(C(F)(F)F)CCN([C@@H]4COC[C@@H]4F)CC3)C(=O)O)cccc12 [Compound 668]	IC50	> 1000 nM
O=C(O)[C@H](Cc1cccc2c(-c3ncc(CN4CCCCC4)c4ccccc34)cccc12)NC(=O)C1(C(F)(F)F)CCN(C2CC(F)(F)C2)CC1 [Compound 681]	IC50	100 to 1000 nM
CN(C)c1ccc2c(c1)c(C(F)(F)F)c(-c1cccc3c(C[C@H](NC(=O)C4(C(F)(F)F)CCN(CC(F)(F)F)CC4)C(=O)O)cccc13)c(=O)n2C [Compound 454]	IC50	> 1000 nM
Cc1n[nH]c(C)c1-c1cc(F)c(C(=O)N[C@@H](Cc2cccc3c(-c4c(C(F)(F)F)c5ccccc5n(C)c4=O)cccc23)C(=O)O)c(F)c1 [Compound 308]	IC50	> 1000 nM
Cn1c(=O)c(-c2cccc3c(C[C@H](NC(=O)[C@]4(C)CC[C@H](N5CCOC[C@@H]5C(F)(F)F)CC4)C(=O)O)cccc23)c(C(F)(F)F)c2ccccc21 (single isomer, unassigned) [Compound 347]	IC50	> 1000 nM
Cn1c(=O)c(-c2cccc3c(C[C@H](NC(=O)C4(C(F)(F)F)CCN(CC(F)F)CC4)C(=O)O)cccc23)c(C(F)(F)F)c2cc(C(F)(F)F)ccc21 [Compound 537]	IC50	> 1000 nM
O=C(O)[C@H](Cc1cccc2c(-c3nccc4c(CN5CCOC(C(F)(F)F)C5)cccc34)cccc12)NC(=O)C1(C(F)(F)F)CCN(CC(F)(F)F)CC1 (some centres unmarked) [Compound 660]	IC50	> 1000 nM
CN(C)Cc1cccc2c(-c3cccc4c(C[C@H](NC(=O)c5c(F)cc(N6CCOC[C@@H]6C(F)(F)F)cc5CN5CCOCC5)C(=O)O)cccc34)nccc12 [Compound 298]	IC50	> 1000 nM
CC1OCC1N1CCC(C(=O)N[C@@H](Cc2cccc3c(-c4c(C(F)(F)F)c5ccccc5n(C)c4=O)cccc23)C(=O)O)(C(F)(F)F)CC1 (some centres unmarked) [Compound 510]	IC50	100 to 1000 nM
Cn1c(C(F)(F)F)cc(C(F)(F)F)c(-c2cccc3c(C[C@H](NC(=O)C4(C(F)(F)F)CCN(CC(F)(F)F)CC4)C(=O)O)cccc23)c1=O [Compound 431]	IC50	100 to 1000 nM
CN(C)Cc1cccc2c(-c3cccc4c(C[C@H](NC(=O)[C@]5(C)CC[C@H](N6CCC(F)(F)CC6)CC5)C(=O)O)cccc34)nccc12 [Compound 424]	IC50	> 1000 nM
O=C(N[C@@H](Cc1cccc2c(-c3cccc4cccnc34)cccc12)C(=O)O)c1c(F)cccc1F [Compound 500]	IC50	> 1000 nM
COc1ccc(CN2CCC(F)(F)CC2)c(OC)c1-c1cccc2c(C[C@H](NC(=O)c3c(C)cccc3F)C(=O)O)cccc12 [Compound 634]	IC50	> 1000 nM

###

# SYSTEM TESTED: α4β7 integrin (Homo sapiens (Human), UniProt P13612+P26010)
# PROTOCOL NOTES: Integrin Adhesion Assay: Protocol 1 (MAdCAM-coated plate, RPMI-8866 cells, CellTiter GLO readout)
# Format: cell-based
# MEASUREMENT CONDITIONS: integrin adhesion assay; determined by at least one of the assays described (protocol not specified)
pIC50: −log10 of the molar value.
The entries below are paired with their reported pIC50.
PARAMETER: pIC50

In [3]: df
Out[3]:
                                    molecule        result
 0  Cn1ccc(=O)n(-c2cccc3c(C[C@H](NC(=O)C45CCC(C(F)(F)F)(CC4)CC5)C(=O)O)cccc23)c1=O [Compound 165]  6.00 to 7.00
 1  O=C(N[C@@H](Cc1cccc2c(-c3nccc4ccncc34)cccc12)C(=O)O)c1c(F)cc(N2CCOC[C@@H]2C(F)(F)F)cc1CN1CCOCC1 [Compound 129]        > 8.00
 2  Cn1ccc(C(F)(F)F)c(-c2nccc3c(C[C@H](NC(=O)c4c(Cl)cc(N5CCOC[C@@H]5C(F)(F)F)cc4CN4CCOCC4)C(=O)O)cccc23)c1=O [Compound 225]        > 8.00
 3  CC(C)CN1CCC(C)(C(=O)N[C@@H](Cc2cccc3c(-n4c(=O)ccn(C)c4=O)cccc23)C(=O)O)CC1 [Compound 59]  7.00 to 8.00
 4  O=C(N[C@@H](Cc1cccc2c(-c3nccc4ccncc34)cccc12)C(=O)O)c1c(F)cc(N2CCOC[C@@H]2CC(F)F)cc1F [Compound 39]  7.00 to 8.00
 5  Cn1ccc(C(F)(F)F)c(-c2cncc3c(C[C@H](NC(=O)c4c(F)cccc4F)C(=O)O)cccc23)c1=O [Compound 211]  7.00 to 8.00
 6  Cn1ccc(=O)n(-c2cccc3c(C[C@H](NC(=O)C45CCN(CC4)CC5)C(=O)O)cccc23)c1=O [Compound 62]        < 6.00
 7  CN1CCN(c2cc(F)c(C(=O)N[C@@H](Cc3cccc4c(-n5c(=O)ccn(C)c5=O)cccc34)C(=O)O)c(F)c2)[C@@H](C(F)(F)F)C1 [Compound 21]  7.00 to 8.00
 8  O=C(N[C@@H](Cc1cccc2c(-c3nccc4ccncc34)cccc12)C(=O)O)c1c(F)cc(CN2CCC2)cc1F [Compound 37]        < 6.00
 9  Cn1ccc(C(F)(F)F)c(-c2nccc3c(C[C@H](NC(=O)c4c(F)cc(N5CCOC[C@H]5C5CC5)cc4F)C(=O)O)cccc23)c1=O [Compound 257]  7.00 to 8.00
10  Cn1ccc(=O)n(-c2cccc3c(C[C@H](NC(=O)C45CCC(CC4)CC5)C(=O)O)cccc23)c1=O [Compound 51]  6.00 to 7.00
11  Cn1ccc(C(F)(F)F)c(-c2nccc3c(C[C@H](NC(=O)c4c(F)cc(N5CCOC[C@@H]5C5CC5)cc4F)C(=O)O)cccc23)c1=O [Compound 251]        > 8.00
12  Cn1ccc(=O)n(-c2cccc3c(C[C@H](NC(=O)c4c(F)cc(N5CCOC[C@@H]5C(F)(F)F)cc4CN4CCOCC4)C(=O)O)cccc23)c1=O [Compound 20]        > 8.00
13  Cn1ccc(=O)n(-c2cccc3c(C[C@H](NC(=O)[C@@H]4CCCN4S(=O)(=O)c4ccccc4)C(=O)O)cccc23)c1=O [Compound 109]  6.00 to 7.00
14  Cn1c(C(F)(F)F)ccc(-c2cccc3c(C[C@H](NC(=O)c4c(F)cc(N5CCOC[C@@H]5C(F)(F)F)cc4F)C(=O)O)cccc23)c1=O [Compound 67]        > 8.00
15  CN(C)CCn1ccc(=O)n(-c2cccc3c(C[C@H](NC(=O)c4c(F)cccc4F)C(=O)O)cccc23)c1=O [Compound 119]  7.00 to 8.00
16  Cn1ccc(=O)n(-c2cccc3c(C[C@H](NC(=O)[C@@H]4[C@@H]5CC[C@H]4CN(CC(F)(F)F)C5)C(=O)O)cccc23)c1=O [Compound 155]        < 6.00
17  Cn1ccc(=O)n(-c2cccc3c(C[C@H](NC(=O)c4ccc5cc(C(=O)N6CCC[C@@H]6c6ccccc6)ccc5c4)C(=O)O)cccc23)c1=O [Compound 49]        < 6.00
18  Cn1ccc(=O)n(-c2cccc3c(C[C@H](NC(=O)c4c(F)cc(NCC(F)(F)F)cc4F)C(=O)O)cccc23)c1=O [Compound 114]        > 8.00
19  Cn1ccc(=O)n(-c2cccc3c(C[C@H](NC(=O)c4c(F)cc(NCC(F)(F)F)cc4CN4CCOCC4)C(=O)O)cccc23)c1=O [Compound 19]        > 8.00
20  Cn1ccc(=O)n(-c2cccc3c(C[C@H](NC(=O)c4c(F)cc5c(ccn5C)c4F)C(=O)O)cccc23)c1=O [Compound 27]  7.00 to 8.00
21  Cn1ccc(C(F)(F)F)c(-c2nccc3c(C[C@H](NC(=O)c4c(F)cc(N5CCOC[C@H]5C(F)(F)F)cc4F)C(=O)O)cccc23)c1=O [Compound 218]  7.00 to 8.00
22  COCCN1CCC(C)(C(=O)N[C@@H](Cc2cccc3c(-n4c(=O)ccn(C)c4=O)cccc23)C(=O)O)CC1 [Compound 159]  6.00 to 7.00
23  Cc1cc(C(F)(F)F)c(-c2cccc3c(C[C@H](NC(=O)c4c(F)cc(N5CCOC[C@@H]5C(F)(F)F)cc4F)C(=O)O)cccc23)c(=O)n1C [Compound 113]        > 8.00
24  CCC1(C(=O)N[C@@H](Cc2cccc3c(-n4c(=O)ccn(C)c4=O)cccc23)C(=O)O)CCC(F)(F)CC1 [Compound 66]  6.00 to 7.00
